species: Rattus norvegicus; assay: DrugMatrix - Regimen: Daily Repeat; assay type: toxicity, organism-based, Sprague-Dawley; set-up: regimen Daily Repeat, gender Male, age 6-8 weeks; details: in vivo, ip, 0.5 mg/kg, […], tissue Blood, route intraperitoneal, dose level High, time 28 day, vehicle 100 % SALINE
TEST READOUT: ABSOLUTE BASOPHIL (cells/µL)
Form entry: value (cells/µL) — number only.

Identify measured ABSOLUTE BASOPHIL associated with CISPLATIN
87.8

* * *

// reported ASPARTATE AMINOTRANSFERASE per item
species: Rattus norvegicus; assay: DrugMatrix - Regimen: Daily Repeat; type: toxicity, organism-based, Sprague-Dawley; set-up: regimen Daily Repeat, gender Male, age 6-8 weeks; conditions: in vivo, po, 0 mg/kg, 72 h, tissue Plasma, route oral GAVAGE, dose level Control, time 3 day, vehicle .5 % CMC
Form entry: value (u/L) — number only.

For orientation, consider the following solved cases.
>  <COMPOUND>
NCC(=O)O [GLYCINE]

>  <UNIT ABBREV>
u/L

>  <ASPARTATE AMINOTRANSFERASE>
63.17

$$$$
>  <COMPOUND>
Brc1ccccc1 [BROMOBENZENE]

>  <UNIT ABBREV>
u/L

>  <ASPARTATE AMINOTRANSFERASE>
83.17

$$$$
>  <COMPOUND>
CC[C@H]1OC(=O)[C@H](C)[C@@H](O[C@H]2C[C@@](C)(OC)[C@@H](O)[C@H](C)O2)[C@H](C)[C@@H](O[C@@H]2O[C@H](C)C[C@H](N(C)C)[C@H]2O)[C@](C)(O)C[C@@H](C)/C(=N\OCOCCOC)[C@H](C)[C@@H](O)[C@]1(C)O [ROXITHROMYCIN]

>  <UNIT ABBREV>
u/L

>  <ASPARTATE AMINOTRANSFERASE>
62.83

$$$$
>  <COMPOUND>
COC(=O)c1ccc(O)cc1 [METHYLPARABEN]

>  <UNIT ABBREV>
u/L

>  <ASPARTATE AMINOTRANSFERASE>
89.5

$$$$
>  <COMPOUND>
C[C@]12CCC(=O)C=C1CC[C@@H]1[C@@H]2C(=O)C[C@@]2(C)[C@H]1CC[C@]2(O)C(=O)CO [CORTISONE]

>  <UNIT ABBREV>
u/L

>  <ASPARTATE AMINOTRANSFERASE>
62.83

$$$$
>  <COMPOUND>
CCC[C@@H]1C[C@@H](C(=O)N[C@@H]([C@H]2O[C@H](SC)[C@H](O)[C@@H](O)[C@H]2O)[C@@H](C)O)N(C)C1 [LINCOMYCIN]

>  <UNIT ABBREV>
u/L

>  <ASPARTATE AMINOTRANSFERASE>
82.17

$$$$
>  <COMPOUND>
CCc1ccc(C(=O)C(C)CN2CCCCC2)cc1 (stereo not given) [EPERISONE]

>  <UNIT ABBREV>
u/L

>  <ASPARTATE AMINOTRANSFERASE>
84.83

$$$$
>  <COMPOUND>
CC1(C)[C@H]2CC[C@]1(C)C(=O)C2 [(-)-CAMPHOR]

>  <UNIT ABBREV>
u/L

>  <ASPARTATE AMINOTRANSFERASE>
81.17

$$$$
>  <COMPOUND>
CCOC(=O)OC(C)OC1=C(C(=O)Nc2ccccn2)N(C)S(=O)(=O)c2ccccc21 (stereo not given) [AMPIROXICAM]

>  <UNIT ABBREV>
u/L

>  <ASPARTATE AMINOTRANSFERASE>
83.17

$$$$

Please find the next compound below.
Identify measured ASPARTATE AMINOTRANSFERASE associated with CN1C(C(=O)Nc2ccccn2)=C(O)c2ccccc2S1(=O)=O [PIROXICAM]
66.17

* * *

organism: Rattus norvegicus; test: DrugMatrix - Regimen: Daily Repeat; format: toxicity, organism-based, Sprague-Dawley; design: regimen Daily Repeat, gender Male, age 6-8 weeks; details: in vivo, po, 0 mg/kg, 72 h, tissue Plasma, route oral GAVAGE, dose level Control, time 3 day, […]
Field: label. Allowed values: Fulfilled (CARBON DIOXIDE < 30 mmol/L) or Not fulfilled (CARBON DIOXIDE >= 30 mmol/L).

>  <MOLECULE>
Cn1cnc([N+](=O)[O-])c1Sc1ncnc2nc[nH]c12 [AZATHIOPRINE]

>  <CLASSIFICATION>
Not fulfilled

$$$$
>  <MOLECULE>
CN(C)CCCC1(c2ccc(F)cc2)OCc2cc(C#N)ccc21 (configuration not stated) [CITALOPRAM]

>  <CLASSIFICATION>
Not fulfilled

$$$$
>  <MOLECULE>
CSc1ccc2c(c1)N(CCC1CCCCN1C)c1ccccc1S2 (configuration not stated) [THIORIDAZINE]

>  <CLASSIFICATION>
Fulfilled

$$$$

Dear reviewer, please state whether C=CCN [ALLYLAMINE] has CARBON DIOXIDE strictly beneath 30 mmol/L.
Not fulfilled

Dear reviewer, please state whether CC1=C(/C=C/C(C)=C/C=C/C(C)=C\C(=O)O)C(C)(C)CCC1 [ISOTRETINOIN] has CARBON DIOXIDE strictly beneath 30 mmol/L.
Not fulfilled

* * *

// reported GLUCOSE per item
species on record: Rattus norvegicus; test: DrugMatrix - Regimen: Daily Repeat; format: toxicity, organism-based, Sprague-Dawley; parameters: regimen Daily Repeat, gender Male, age 6-8 weeks; details: in vivo, iv, 0 mg/kg, 120 h, tissue Plasma, dose level Control, time 5 day, vehicle 100 % SALINE
Form entry: value (mg/dL) — number only.

For orientation, consider the following solved cases.
>  <COMPOUND>
CC1(C)S[C@@H]2[C@H](NC(=O)[C@H](NC(=O)N3CCNC3=O)c3ccccc3)C(=O)N2[C@H]1C(=O)O [AZLOCILLIN]

>  <GLUCOSE [mg/dL]>
167.33

$$$$
>  <COMPOUND>
CN(N=O)C(=O)N[C@@H](C=O)[C@@H](O)[C@H](O)[C@H](O)CO [STREPTOZOCIN]

>  <GLUCOSE [mg/dL]>
186.17

$$$$
>  <COMPOUND>
NCC[C@H](O)C(=O)N[C@@H]1C[C@H](N)[C@@H](O[C@H]2O[C@H](CN)[C@@H](O)[C@H](O)[C@H]2O)[C@H](O)[C@H]1O[C@H]1O[C@H](CO)[C@@H](O)[C@H](N)[C@H]1O [AMIKACIN]

>  <GLUCOSE [mg/dL]>
155

$$$$

Please find the next compound below.
Identify measured GLUCOSE associated with CC[C@@]1(O)C(=O)OCc2c1cc1n(c2=O)Cc2cc3ccccc3nc2-1 [CAMPTOTHECIN]
186.83

* * *

species: Rattus norvegicus; experiment: DrugMatrix - Regimen: Daily Repeat; format: toxicity, organism-based, Sprague-Dawley; set-up: regimen Daily Repeat, gender Male, age 6-8 weeks; settings: in vivo, po, 2000 mg/kg, 72 h, tissue Plasma, route oral GAVAGE, dose level High, time 3 day, vehicle .5 % CMC
TEST READOUT: ALANINE AMINOTRANSFERASE (u/L)
Form entry: value (u/L) — number only.

For orientation, consider the following solved cases.
>  <COMPOUND>
NCCCC[C@H](N[C@@H](CCc1ccccc1)C(=O)O)C(=O)N1CCC[C@H]1C(=O)O [LISINOPRIL ANHYDROUS]

>  <EXPERIMENTAL RESULT>
40.33

$$$$
>  <COMPOUND>
CC(C)[C@H](N)C(=O)OCCOCn1cnc2c(=O)[nH]c(N)nc21

>  <EXPERIMENTAL RESULT>
43.33

$$$$
>  <COMPOUND>
NCC(=O)O

>  <EXPERIMENTAL RESULT>
31.33

$$$$

Identify measured ALANINE AMINOTRANSFERASE associated with CC(=O)O[C@]1(C(C)=O)CC[C@H]2[C@@H]3C=C(Cl)C4=CC(=O)CC[C@]4(C)[C@H]3CC[C@@]21C [CHLORMADINONE ACETATE]
57

* * *

species on record: Rattus norvegicus; experiment: DrugMatrix - Regimen: Daily Repeat; format: toxicity, organism-based, Sprague-Dawley; design: regimen Daily Repeat, gender Male, age 6-8 weeks; settings: in vivo, po, 0 mg/kg, 72 h, tissue Plasma, route oral GAVAGE, dose level Control, time 3 day, […]
TEST READOUT: ALBUMIN (G/DL)
Form entry: value (G/DL) — number only.

>  <COMPOUND>
CC(C)(Oc1ccc(CCNC(=O)c2ccc(Cl)cc2)cc1)C(=O)O [BEZAFIBRATE]

>  <ALBUMIN [G/DL]>
4.12

$$$$
>  <COMPOUND>
CCCCCCCCCc1ccc(O)cc1 [4-NONYLPHENOL]

>  <ALBUMIN [G/DL]>
4.03

$$$$
>  <COMPOUND>
CN(C)CCCC1(c2ccc(F)cc2)OCc2cc(C#N)ccc21 (centres undefined) [CITALOPRAM]

>  <ALBUMIN [G/DL]>
4

$$$$
>  <COMPOUND>
COc1ccc2c(c1)c(CC(=O)OCC(=O)O)c(C)n2C(=O)c1ccc(Cl)cc1 [ACEMETACIN]

>  <ALBUMIN [G/DL]>
4.1

$$$$

Identify measured ALBUMIN associated with C=CCN [ALLYLAMINE]
4.17

Identify measured ALBUMIN associated with COCc1c(C(C)C)nc(C(C)C)c(/C=C/[C@@H](O)C[C@@H](O)CC(=O)O)c1-c1ccc(F)cc1 [CERIVASTATIN]
4.03

Identify measured ALBUMIN associated with CSc1ccc2c(c1)N(CCC1CCCCN1C)c1ccccc1S2 (centres undefined) [THIORIDAZINE]
4.25

Identify measured ALBUMIN associated with c1ccc2[nH]c(-c3cscn3)nc2c1 [THIABENDAZOLE]
3.75

Identify measured ALBUMIN associated with COC1=CC(=O)C[C@@H](C)[C@]12Oc1c(Cl)c(OC)cc(OC)c1C2=O [GRISEOFULVIN]
4.18

Identify measured ALBUMIN associated with Cn1cnc([N+](=O)[O-])c1Sc1ncnc2nc[nH]c12 [AZATHIOPRINE]
4.07

Identify measured ALBUMIN associated with CC1=C(/C=C/C(C)=C/C=C/C(C)=C\C(=O)O)C(C)(C)CCC1 [ISOTRETINOIN]
4.08

Identify measured ALBUMIN associated with CCCC[C@@H](CC)COC(=O)c1ccccc1C(=O)OC[C@@H](CC)CCCC [BIS(2-ETHYLHEXYL)PHTHALATE]
3.75

Identify measured ALBUMIN associated with Oc1c(Cl)cc(Cl)cc1Sc1cc(Cl)cc(Cl)c1O [BITHIONOL]
3.93

Identify measured ALBUMIN associated with CC(C)n1c(/C=C/C(O)CC(O)CC(=O)O)c(-c2ccc(F)cc2)c2ccccc21 (centres undefined) [FLUVASTATIN]
3.93
